- test.details: microbe, parasite or virus in culture
- test.conditions: Mycobacterium tuberculosis, 96 h, read-out: pIC50 (converted)
readout: IC50

{"molecule": "O=C(Nc1cccnc1)N1CCC(n2ccc(C(F)(F)F)n2)CC1", "IC50": "> 50.1 µM"}
{"molecule": "CCNCc1ccc2c(c1)OCO2", "IC50": "> 501 µM"}
{"molecule": "CCc1nnc2n1CCN(C(C(=O)NC1CC1)c1ccccc1)C2 (centres undefined)", "IC50": "> 50.1 µM"}

Returns the measured IC50 for the input molecule. Input: O=C(COCC1CC1)Nc1cc(S(=O)(=O)NC2CC2)ccc1F
> 50.1 µM

Origin of measurements: ChEMBL document CHEMBL3988442
